The origin of these recorded values is PubChem BioAssay (NCI).

Test system: SN12C renal
method summary: NCI tumour cell line growth inhibition, 48 h
readout kind: TGI

- compound: "NC(=O)NC1NC(=O)NC1=O (stereo unspecified)"
  readout kind: "TGI"
  result value: "> 100 µM"
- compound: "COc1cccc(Nc2nc(C)c([N+](=O)[O-])c(Nc3cccc(OC)c3)n2)c1"
  readout kind: "TGI"
  result value: "> 100 µM"
- compound: "COC(=O)Nc1nc2ccc(Oc3ccc(NC(=O)Nc4ccccc4)cc3)cc2[nH]1"
  readout kind: "TGI"
  result value: "> 10.9 µM"
- compound: "N#Cc1ccc(NC(=NCC(=O)O)Nc2cccc3ccccc23)cc1"
  readout kind: "TGI"
  result value: "> 10 µM"
- compound: "COc1ccc(CNc2ccn(C3OC(CO)C(O)C3O)c(=O)n2)cc1 (stereo unspecified)"
  readout kind: "TGI"
  result value: "> 100 µM"
- compound: "Cc1ccc2c(c1)C(=O)C1(C2)Cc2c(C)cccc2C1=O (stereo unspecified)"
  readout kind: "TGI"
  result value: "> 100 µM"
- compound: "CCN(CCCl)c1cc(CN(C)C)cc(NC(=O)c2ccc(C(=O)Nc3cc(CN(C)C)cc(N(CC)CCCl)c3)cc2)c1"
  readout kind: "TGI"
  result value: "1.53 µM"
- compound: "Cc1c2c(cc3c1C(=O)C(=O)C([C@@H](C)CO)=C3O)C(C)(C)CCC2"
  readout kind: "TGI"
  result value: "> 100 µM"
- compound: "CCOC(=O)c1cc(/C(=N\\O)c2cc(OC)c(OC)c(OC)c2)n2cc(C)cc(C)c12"
  readout kind: "TGI"
  result value: "> 100 µM"
- compound: "O=C(Nc1ccc(Cl)cc1)c1cc(-c2ccc(F)cc2)c2sc(=O)[nH]c2n1"
  readout kind: "TGI"
  result value: "7.93 µM"
- compound: "Cn1c(-c2cccs2)cc(-c2cccs2)c1-c1cccs1"
  readout kind: "TGI"
  result value: "> 100 µM"
- compound: "NCCCC[C@@H]1NC(=O)[C@H]2CCCN2C(=O)[C@H](Cc2ccccc2)NC(=O)[C@H](Cc2ccccc2)CNC1=O"
  readout kind: "TGI"
  result value: "> 100 µM"
- compound: "O=C(Nc1ccc(Cl)cc1)c1cc(S(=O)(=O)Nc2n[nH]c(Nc3ccc4ccccc4c3)n2)c(SSc2cc(Cl)c(C(=O)Nc3ccc(Cl)cc3)cc2S(=O)(=O)Nc2n[nH]c(Nc3ccc4ccccc4c3)n2)cc1Cl"
  readout kind: "TGI"
  result value: "59.2 µM"
- compound: "CC(=O)OC1C=C(C=O)C(O)(C=O)C2(C)CCCC(C)(C)C12 (stereo unspecified)"
  readout kind: "TGI"
  result value: "5.97 µM"
- compound: "Cc1cc(S(=O)(=O)Nc2nc(N)nc(N3N=CCC3C)n2)c(SCC(=O)O)cc1Cl (stereo unspecified)"
  readout kind: "TGI"
  result value: "> 10 µM"
- compound: "C/C(Cl)=N/OC(=O)Nc1ccc(F)c([N+](=O)[O-])c1"
  readout kind: "TGI"
  result value: "19.4 µM"
- compound: "NCC(Cl)C(O)c1cnc(N)[nH]1 (stereo unspecified)"
  readout kind: "TGI"
  result value: "32.8 µM"
- compound: "CC(=O)OCC1OC(NC(=S)Nn2c(=O)[nH]c3ccccc3c2=O)C(OC(C)=O)C(OC(C)=O)C1OC(C)=O (stereo unspecified)"
  readout kind: "TGI"
  result value: "> 100 µM"
- compound: "Cc1ccc(C(=NN=C(N)N)c2ccc(C)cc2)cc1"
  readout kind: "TGI"
  result value: "11.6 µM"
- compound: "NC(CC(=O)OCc1ccccc1)C(=O)OCc1ccccc1 (stereo unspecified)"
  readout kind: "TGI"
  result value: "> 100 µM"
- compound: "CCOC(=O)CC[C@H](N)C(=O)N[C@@H](Cc1ccc(N(CCCl)CCCl)cc1)C(=O)OCC"
  readout kind: "TGI"
  result value: "9.22 µM"
